Values from paper PMC7231638

# SYSTEM_UNDER_TEST: Mre11 Y187F (in MRNBD);Rad50NBD (Pyrococcus furiosus;Pyrococcus furiosus, UniProt Q8U1N9;P58301 1-426;1-195+709-882, Y187F|internal_change)
# METHOD_NOTES: fluorescence polarization
METRIC: pKd
Notebook: values listed as pKd are -log10 of the concentration (mol/L).

Identify pKd associated with the binder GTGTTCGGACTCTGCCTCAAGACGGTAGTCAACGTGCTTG (ssDNA) [FAM 40-mer ssDNA]
6.72
